Measured values drawn from ChEMBL document CHEMBL1153765 for this set.

Test system: HT-29
Assay: Cytotoxicity against human HT-29 cells
Type: functional
Settings: read-out: ED50 (the source's name)
pEC50: −log10 of the molar value.
pEC50 values for the molecules below.
READOUT_NAME: pEC50

1) CC(=O)O[C@@H]([C@H]1C[C@@H]1C(=O)C(C)OC(=O)/C=C/c1ccc(O)cc1)[C@H]1CC=CC(=O)O1 (some centres not stated) [BREVIPOLIDE A] = 5.24
2) CC(=O)O[C@@H]([C@H]1C[C@@H]1C(=O)C(C)OC(=O)/C=C\c1ccc(O)cc1)[C@H]1CC=CC(=O)O1 (some centres not stated) [BREVIPOLIDE B] = 5.21
